Experiment description: in vivo
Protocol conditions: Sprague-Dawley, rat, iv, 1 mg/kg
Vd for assorted compounds

// below: answered compounds
Structure notation: Cc1ccc(S(=O)(=O)N2CCNC(=O)[C@H]2CC(=O)N[C@@H]2CCCc3cc(CNCC(C)(C)C)ccc32)cc1
Vd: 3.4 L/kg
--
Structure notation: O=C(C[C@@H]1C(=O)NCCN1S(=O)(=O)c1ccccc1)N[C@@H]1CCCc2cc(CN3CCCCC3)ccc21
Vd: 9.9 L/kg
--
Structure notation: Cc1ccc(S(=O)(=O)N2CCNC(=O)[C@H]2CC(=O)N[C@@H]2CCCc3cc(CN4CCCCC4)ccc32)cc1
Vd: 9.3 L/kg

Memo: O=C(C[C@@H]1C(=O)NCCN1S(=O)(=O)c1ccc(Cl)cc1)N[C@@H]1CCCc2cc(CN3CCCCC3)ccc21 , reported Vd: 11.9 L/kg

Memo: Cc1ccc(S(=O)(=O)N2CCNC(=O)[C@H]2CC(=O)N[C@@H]2CCCc3cc(CNC(C)(C)C)ccc32)cc1 , reported Vd: 8.34 L/kg

====

Experiment description: Half life in dog at 1 mg/kg, iv
Assay type: ADME, organism-based, Canis lupus familiaris
Design: dose 1 mg/kg, route intravenous
Protocol conditions: in vivo
Quantity measured: half-life (h)
State just the number; it will be interpreted in h.

Memo: Cc1ccc(S(=O)(=O)N2CCNC(=O)[C@H]2CC(=O)N[C@@H]2CCCc3cc(CN4CCCCC4)ccc32)cc1 , reported half-life: 4.6

====

Experiment description: Clearance in cynomolgus monkey at 1 mg/kg, iv
Format: ADME, organism-based, Macaca fascicularis
Design: dose 1 mg/kg, route intravenous
Protocol conditions: in vivo
Quantity measured: clearance (mL/min/kg)
State just the number; it will be interpreted in mL/min/kg.

Memo: Cc1ccc(S(=O)(=O)N2CCNC(=O)[C@H]2CC(=O)N[C@@H]2CCCc3cc(CN4CCCCC4)ccc32)cc1 , reported clearance: 10

====

Experiment description: Volume of distribution at steady state in dog at 1 mg/kg, iv
Type: ADME, organism-based, Canis lupus familiaris
Parameters: dose 1 mg/kg, route intravenous
Protocol conditions: in vivo, read-out: Vdss
Quantity measured: Vd (L/kg)
State just the number; it will be interpreted in L/kg.

Memo: Cc1ccc(S(=O)(=O)N2CCNC(=O)[C@H]2CC(=O)N[C@@H]2CCCc3cc(CN4CCCCC4)ccc32)cc1 , reported Vd: 16.2

====

Experiment description: Clearance in rabbit at 1 mg/kg, iv
Format: ADME, organism-based, Oryctolagus cuniculus
Parameters: dose 1 mg/kg, route intravenous
Protocol conditions: in vivo
Quantity measured: clearance (mL/min/kg)
State just the number; it will be interpreted in mL/min/kg.

Memo: Cc1ccc(S(=O)(=O)N2CCNC(=O)[C@H]2CC(=O)N[C@@H]2CCCc3cc(CN4CCCCC4)ccc32)cc1 , reported clearance: 53.3

====

Experiment description: Half life in rhesus monkey at 1 mg/kg, iv
Assay type: ADME, organism-based, Macaca mulatta
Parameters: dose 1 mg/kg, route intravenous
Protocol conditions: in vivo
Quantity measured: half-life
The answer should read as a number with its unit following.

Memo: Cc1ccc(S(=O)(=O)N2CCNC(=O)[C@H]2CC(=O)N[C@@H]2CCCc3cc(CN4CCCCC4)ccc32)cc1 , reported half-life: 3.2 h

====

Experiment description: Half life in mouse at 1 mg/kg, iv
Format: ADME, organism-based
Design: dose 1 mg/kg, route intravenous
Protocol conditions: in vivo
Quantity measured: half-life (h)
State just the number; it will be interpreted in h.

Memo: Cc1ccc(S(=O)(=O)N2CCNC(=O)[C@H]2CC(=O)N[C@@H]2CCCc3cc(CN4CCCCC4)ccc32)cc1 , reported half-life: 1.4
